I'd be grateful if you could share measured pIC50 for these entries.
- Tested On: human VR1 (Homo sapiens, UniProt Q8NER1)
- Construct: The cloned hVR1 cDNA was constructed with pcDNA3 vector and transfected into a CHOluc9aeq cell line; expressed in transfected cells
- Sequence (Q8NER1 whole entry): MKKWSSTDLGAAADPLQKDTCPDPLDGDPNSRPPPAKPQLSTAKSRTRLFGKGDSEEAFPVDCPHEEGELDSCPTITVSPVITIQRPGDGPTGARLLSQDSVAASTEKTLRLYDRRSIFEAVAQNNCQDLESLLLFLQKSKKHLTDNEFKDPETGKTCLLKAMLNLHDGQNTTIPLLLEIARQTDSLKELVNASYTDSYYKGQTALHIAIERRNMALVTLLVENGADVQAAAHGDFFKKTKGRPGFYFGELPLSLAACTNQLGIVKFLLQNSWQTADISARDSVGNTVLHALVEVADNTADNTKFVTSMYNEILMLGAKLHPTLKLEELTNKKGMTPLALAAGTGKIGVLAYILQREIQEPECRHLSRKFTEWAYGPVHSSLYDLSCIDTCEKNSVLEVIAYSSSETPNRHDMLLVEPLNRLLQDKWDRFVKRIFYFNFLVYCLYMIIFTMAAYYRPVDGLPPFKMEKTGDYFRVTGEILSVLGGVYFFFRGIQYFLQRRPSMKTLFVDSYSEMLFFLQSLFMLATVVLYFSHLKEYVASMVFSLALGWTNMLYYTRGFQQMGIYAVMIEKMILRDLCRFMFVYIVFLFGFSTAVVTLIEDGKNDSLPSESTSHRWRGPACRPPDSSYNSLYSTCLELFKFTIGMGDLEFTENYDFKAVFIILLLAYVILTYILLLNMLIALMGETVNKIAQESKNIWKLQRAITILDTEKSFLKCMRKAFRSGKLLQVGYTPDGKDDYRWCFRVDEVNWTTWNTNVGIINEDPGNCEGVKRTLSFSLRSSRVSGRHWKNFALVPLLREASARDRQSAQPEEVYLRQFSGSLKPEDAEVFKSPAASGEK
- Assay Summary: Capsaicin-induced Ca2+ influx in the human VR1-transfected CHO cell line (Assay 1)
- Assay type: cell-based
- Measurement Conditions: read-out: hVR1 class
pIC50: −log10 of the molar value.

Query string: Would you mind telling me what pIC50 value was observed for "Cc1ccc(NC(=O)Nc2cccc3[nH]ccc23)cc1Cl" ?
Result string: > 7.00

Query string: Further, for "Cc1cccc(NC(=O)Nc2ccc3sc(C)nc3c2)c1" ?
Result string: > 7.00

Query string: Further, for "O=C(Nc1cc(Cl)cc(Cl)c1)Nc1cccc2[nH]ccc12" ?
Result string: 6.30 to 7.00

Query string: Further, for "O=C(Nc1ccc(Cl)c(C(F)(F)F)c1)Nc1ccc2[nH]ccc2c1" ?
Result string: 6.30 to 7.00

Query string: Further, for "O=C(Nc1ccc(Cl)c(C(F)(F)F)c1)Nc1ccc2[nH]ncc2c1" ?
Result string: > 7.00

Query string: Further, for "Cc1nc2c(NC(=O)Nc3ccc(Oc4ccccc4)cc3)cccc2[nH]1" ?
Result string: > 7.00

Query string: Further, for "Cc1nc2cc(NC(=O)Nc3ccc(Br)cc3)ccc2[nH]1" ?
Result string: 6.00 to 6.30

Query string: Further, for "O=C(Nc1ccc(Cl)c(C(F)(F)F)c1)Nc1ccc2[nH]c(C(F)(F)F)nc2c1" ?
Result string: 6.00 to 6.30

Query string: Further, for "COc1cccc(NC(=O)Nc2ccc3c(c2)S(=O)(=O)C=C3)c1" ?
Result string: 6.00 to 6.30

Query string: Further, for "Cc1ccc(CNC(=O)Nc2cccc3[nH]ccc23)cc1" ?
Result string: 6.30 to 7.00

Query string: Further, for "O=C(Nc1ccc(F)cc1)Nc1ccc2[nH]ccc2c1" ?
Result string: 6.00 to 6.30

Query string: Further, for "O=C(Nc1ccc(Cl)c(C(F)(F)F)c1)Nc1cccc2cc[nH]c12" ?
Result string: > 7.00

Query string: Further, for "O=C(Nc1ccc(F)cc1)Nc1ccc2[nH]c(C(F)(F)F)nc2c1" ?
Result string: 6.00 to 6.30

Query string: Further, for "O=C(Nc1ccc(Cl)c(C(F)(F)F)c1)Nc1ccc2[nH]c(=S)sc2c1" ?
Result string: 6.00 to 6.30

Query string: Further, for "O=C(Nc1ccc(Cl)c(C(F)(F)F)c1)Nc1ccc2cc[nH]c2c1" ?
Result string: 6.30 to 7.00

Query string: Further, for "O=C(Nc1ccc(Oc2ccccc2)cc1)Nc1cccc2cc[nH]c12" ?
Result string: 6.30 to 7.00

Query string: Further, for "Cc1nc2cc(NC(=O)Nc3ccc(Cl)c(C(F)(F)F)c3)ccc2s1" ?
Result string: > 7.00

Query string: Further, for "O=C(Nc1ccc(Oc2ccccc2)cc1)Nc1cccc2[nH]c(C(F)(F)F)nc12" ?
Result string: 6.30 to 7.00

Query string: Further, for "O=C(Nc1ccc(Cl)c(C(F)(F)F)c1)Nc1cccc2[nH]c(C(F)(F)F)nc12" ?
Result string: > 7.00

Query string: Further, for "CSc1ccc(NC(=O)Nc2cccc3[nH]ccc23)cc1" ?
Result string: 6.00 to 6.30

Query string: Further, for "Cc1nc2cc(NC(=O)Nc3cccc(-c4ccccc4)c3)ccc2s1" ?
Result string: 6.30 to 7.00

Query string: Further, for "O=C(NCc1ccc(Br)cc1)Nc1cccc2[nH]ccc12" ?
Result string: > 7.00

Query string: Further, for "O=C(Nc1ccc(C(F)(F)F)cc1)Nc1cccc2[nH]ccc12" ?
Result string: 6.30 to 7.00

Query string: Further, for "COc1ccc(NC(=O)Nc2cccc3[nH]ccc23)cc1" ?
Result string: 6.00 to 6.30

Query string: Further, for "Cc1nc2c(NC(=O)Nc3ccc(C(C)C)cc3)cccc2[nH]1" ?
Result string: 6.30 to 7.00

Query string: Further, for "O=C(Nc1ccc(Cl)c(C(F)(F)F)c1)Nc1cccc2[nH]nnc12" ?
Result string: 6.30 to 7.00

Query string: Further, for "Cc1nc2cc(NC(=O)Nc3cccc(-c4ccc(Cl)cc4)c3)ccc2s1" ?
Result string: 6.30 to 7.00

Query string: Further, for "Cc1cccc(NC(=O)Nc2cccc3[nH]ccc23)c1" ?
Result string: 6.30 to 7.00

Query string: Further, for "O=C(Nc1cc([N+](=O)[O-])ccc1F)Nc1cccc2[nH]ccc12" ?
Result string: 6.00 to 6.30

Query string: Further, for "O=C(Cc1ccc(Cl)c(C(F)(F)F)c1)Nc1ccc2cn[nH]c2c1" ?
Result string: 6.00 to 6.30

Query string: Further, for "Cc1nc2cc(NC(=O)Nc3ccc(Br)cc3)ccc2s1" ?
Result string: > 7.00

Query string: Further, for "O=C(Nc1ccc(Cl)c(Cl)c1)Nc1cccc2[nH]ccc12" ?
Result string: > 7.00

Query string: Further, for "O=C(Nc1ccc(Cl)c(C(F)(F)F)c1)Nc1cccc2[nH]ccc12" ?
Result string: > 7.00

Query string: Further, for "CSc1cccc(NC(=O)Nc2ccc3sc(C)nc3c2)c1" ?
Result string: 6.30 to 7.00

Query string: Further, for "O=C(Nc1ccc2c(c1)C(=O)OC2)Nc1ccc(Cl)c(C(F)(F)F)c1" ?
Result string: 6.30 to 7.00

====

- Tested On: human VR1 (Homo sapiens)
- Construct: The cloned hVR1 cDNA was constructed with pcDNA3 vector and transfected into a CHOluc9aeq cell line; expressed in transfected cells
- Assay Summary: Capsaicin-induced Ca2+ influx in the human VR1-transfected CHO cell line (Assay 1)
- Type: cell-based
- Measurement Conditions: read-out: hVR1 class
pIC50: −log10 of the molar value.
I'd be grateful if you could share measured pIC50 for these entries.

Query string: # value lookup — system human VR1 (Homo sapiens), readout pIC50, item "O=C(Nc1ccc(F)c([N+](=O)[O-])c1)Nc1cccc2[nH]ccc12"
Result string: 6.30 to 7.00

Query string: Further, for "O=C(Nc1ccc(Cl)c([N+](=O)[O-])c1)Nc1cccc2[nH]ccc12" ?
Result string: 6.30 to 7.00

Query string: Further, for "O=C(Nc1ccc(Oc2ccccc2)cc1)Nc1ccc2[nH]ccc2c1" ?
Result string: 6.30 to 7.00

Query string: Further, for "Cc1nc2cc(NC(=O)Nc3ccc(C(C)C)cc3)ccc2s1" ?
Result string: > 7.00

Query string: Further, for "Cc1cccc(NC(=O)Nc2ccc3c(c2)S(=O)(=O)C=C3)c1" ?
Result string: 6.00 to 6.30

Query string: Further, for "O=C(Nc1cccc(F)c1)Nc1cccc2[nH]ccc12" ?
Result string: 6.00 to 6.30

Query string: Further, for "Cc1nc2ccc(NC(=O)Nc3ccc(Cl)c(C(F)(F)F)c3)cc2s1" ?
Result string: 6.30 to 7.00

Query string: Further, for "COc1cccc(NC(=O)Nc2ccc3sc(C)nc3c2)c1" ?
Result string: 6.30 to 7.00

Query string: Further, for "O=C(Nc1ccc(Br)cc1)Nc1ccc2[nH]ccc2c1" ?
Result string: 6.00 to 6.30

====

Measured Parameter: melting point

Query string: Would you mind telling me what melting point value was observed for "COc1cccc(NC(=O)Nc2ccc3[nH]c(C(F)(F)F)nc3c2)c1" ?
Result string: 233 to 237 °C

Query string: Further, for "O=C(Nc1ccc2c(c1)C(=O)OC2)Nc1ccc(Cl)c(C(F)(F)F)c1" ?
Result string: > 250 °C

Query string: Further, for "O=C(Nc1ccc(Oc2ccccc2)cc1)Nc1ccc2[nH]cnc2c1" ?
Result string: 235 to 237 °C

Query string: Further, for "Cc1ccc(CNC(=O)Nc2cccc3[nH]ccc23)cc1" ?
Result string: 223 °C

Query string: Further, for "CC(C)c1ccc(NC(=O)Nc2ccc3[nH]cnc3c2)cc1" ?
Result string: 226 to 229 °C

Query string: Further, for "O=C(Nc1ccc(Oc2ccccc2)cc1)Nc1ccc2[nH]ccc2c1" ?
Result string: 231 to 233 °C

Query string: Further, for "O=C(Nc1ccc(Cl)c(C(F)(F)F)c1)Nc1ccc2[nH]cnc2c1" ?
Result string: 218 to 220 °C

Query string: Further, for "O=C(Nc1ccc(Cl)c(C(F)(F)F)c1)Nc1ccc2[nH]c(=S)sc2c1" ?
Result string: > 250 °C

Query string: Further, for "COc1ccc(CNC(=O)Nc2cccc3[nH]ccc23)cc1" ?
Result string: 201 to 202 °C

====

Measured Parameter: melting point

Query string: Would you mind telling me what melting point value was observed for "Cc1nc2cc(NC(=O)Nc3ccc(Cl)c(C(F)(F)F)c3)ccc2s1" ?
Result string: 152 to 155 °C

Query string: Further, for "CSc1cccc(NC(=O)Nc2ccc3[nH]ccc3c2)c1" ?
Result string: 236 to 239 °C

Query string: Further, for "CSc1cccc(NC(=O)Nc2ccc3[nH]c(C(F)(F)F)nc3c2)c1" ?
Result string: 226 to 228 °C

Query string: Further, for "COc1cccc(NC(=O)Nc2ccc3sc(C)nc3c2)c1" ?
Result string: 199 to 201 °C

Query string: Further, for "Cc1nc2c(NC(=O)Nc3ccc(Cl)c(C(F)(F)F)c3)cccc2[nH]1" ?
Result string: 189 to 191 °C

The values you see were collected from patent US20050119304A1.
